Test system: Mycobacterium tuberculosis
Assay: Antitubercular activity against dormant stage Mycobacterium tuberculosis H37Ra measured after 12 days by XTT assay
Format: functional
Settings: 288 h
Each entry below carries its reported MIC.

Before answering, review these 5 worked examples.
molecule=O=C(NC[C@H]1CN(c2ccc(N3CC4(COC4)C3)c(F)c2)C(=O)O1)c1ccno1 result="21.2 µg/mL"
molecule=COCC(=O)NC[C@H]1CN(c2ccc(N3CC4(COC4)C3)c(F)c2)C(=O)O1 result="> 100 µg/mL"
molecule=CC(=O)NC[C@H]1CN(c2ccc(C3=C[C@H]4CC[C@@H](C3)N4C(=O)OC(C)(C)C)c(F)c2)C(=O)O1 result="20.5 µg/mL"
molecule=O=C1O[C@@H](CNC(=O)C23CC4CC(CC(C4)C2)C3)CN1c1ccc(N2CC3(COC3)C2)c(F)c1 result="> 100 µg/mL"
molecule=O=C1O[C@@H](CNS(=O)(=O)c2ccc(Cl)s2)CN1c1ccc(N2CC3(COC3)C2)c(F)c1 result="> 100 µg/mL"

// MIC lookup, key: OC1(CNc2ccc(N3CCOCC3)c(F)c2)CCN(Cc2ccccc2)C1 (stereo not given) > 100 µg/mL

Which measured MIC value corresponds to CC1(C)[C@@]2(C)CC[C@]1(C(=O)NC[C@H]1CN(c3ccc(N4CC5(COC5)C4)c(F)c3)C(=O)O1)OC2=O ? > 100 µg/mL
